Target: IL-23 (human, p19/p40 heterodimer) (Homo sapiens) (UniProt Q9NPF7+P29460)
Sequence (Q9NPF7 20-189, chain 1 of 2): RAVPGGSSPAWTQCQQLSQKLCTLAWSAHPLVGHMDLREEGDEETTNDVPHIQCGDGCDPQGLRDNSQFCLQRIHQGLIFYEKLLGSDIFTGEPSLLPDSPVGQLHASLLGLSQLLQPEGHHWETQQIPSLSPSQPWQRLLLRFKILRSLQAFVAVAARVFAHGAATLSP
Sequence (P29460 23-328, chain 2 of 2): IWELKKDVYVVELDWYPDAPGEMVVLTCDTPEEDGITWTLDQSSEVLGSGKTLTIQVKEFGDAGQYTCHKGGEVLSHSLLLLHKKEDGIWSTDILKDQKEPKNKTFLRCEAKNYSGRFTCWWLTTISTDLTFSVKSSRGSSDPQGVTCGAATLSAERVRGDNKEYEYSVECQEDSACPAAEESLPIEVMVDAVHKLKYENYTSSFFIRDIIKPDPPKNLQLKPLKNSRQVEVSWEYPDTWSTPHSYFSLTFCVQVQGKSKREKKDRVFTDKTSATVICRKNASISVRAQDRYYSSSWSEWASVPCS
Experiment: filter
Details: deoxy A,G; 2'-OMe C,U; dI at G30,G31; 3'-idT [dI at 30,31 (G parent); 2'-OMe C/U at 2,6,10,13,14,21,23,27,32,34; other A,G deoxy; 3'-inverted dT at 35]; DPBS Ca Mg
outcome measure: Kd (nM)

{"residue sequence": "ACAGGCAAGUAAUUGGGGAGUGCGGGCGGGGUGU [ARC1617]", "outcome measure": "Kd", "display unit": "nM", "meas value": 4.1}

====

Target: IL-23 (human, p19/p40 heterodimer) (Homo sapiens) (UniProt Q9NPF7+P29460)
Assay: filter
Conditions: deoxy A,G; 2'-OMe C,U; dI at G16; 3'-idT [dI at 16 (parent G); 2'-OMe C,U at 2,6,10,13,14,21,23,27,32,34; deoxy A,G elsewhere; 3'-inverted dT at 35]; DPBS Ca …

{"residue sequence": "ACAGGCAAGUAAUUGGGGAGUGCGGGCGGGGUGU [ARC1596]", "assayed target": "IL-23 (human, p19/p40 heterodimer) (Homo sapiens) (UniProt Q9NPF7+P29460)", "Kd [nM]": 11.1}
